Provenance of the data: patent EP3409761B1

Tested on: human cervical cancer cell line HeLa
Experiment Summary: Comparison with single layer culture method using agent for inducing apoptosis
Type: cell-based
Setup Conditions: agent 1 µM; single layer culture group; day 4
Starred links: 1 amine or outer side, 2 acyl side, 3 side chain; linkers in the order of their positions; H or OH if unused. Positions of bridges follow the written chain, without caps; N, C: chain ends. Non-standard residues stand in square brackets, D forms with d. Residues, ends and D or L forms follow the SMILES beside them. Chains are numbered I, II in the order given. Actinocin(9to1) = Cc1c2oc3c(C)ccc(C(=O)[*:1])c3nc-2c(C(=O)[*:2])c(N)c1=O; NMeV = CN[C@H](C(=O)O)C(C)C; Sar = CNCC(=O)O
Attribute: % Control value of the absorbance at 450 nm (WST-8 measurement)
Express it in % Control; write the number only.

Example cases with answers are listed next.
COc1cc([C@@H]2c3cc4c(cc3[C@@H](O[C@@H]3O[C@@H]5CO[C@@H](C)O[C@H]5[C@H](O)[C@H]3O)[C@H]3COC(=O)[C@H]23)OCO4)cc(OC)c1O [Etoposide] :: 68
C[C@@H]1C[C@H]2[C@@H]3CCC4=CC(=O)C=C[C@]4(C)[C@@]3(F)[C@@H](O)C[C@]2(C)[C@@]1(O)C(=O)CO [Dexamethasone] :: 89
Cc1c2oc3c(C)ccc(C(=O)N[C@@H]4C(=O)N[C@H](C(C)C)C(=O)N5CCC[C@H]5C(=O)N(C)CC(=O)N(C)[C@@H](C(C)C)C(=O)O[C@@H]4C)c3nc-2c(C(=O)N[C@@H]2C(=O)N[C@H](C(C)C)C(=O)N3CCC[C@H]3C(=O)N(C)CC(=O)N(C)[C@@H](C(C)C)C(=O)O[C@@H]2C)c(N)c1=O [Actinomycin D] (I: T[dV]P[Sar][NMeV] / II: T[dV]P[Sar][NMeV]; ester I:1-I:C, II:1-II:C; linker I:N-II:N via Actinocin(9to1)) :: 2

// COc1cccc2c1C(=O)c1c(O)c3c(c(O)c1C2=O)C[C@@](O)(C(=O)CO)C[C@@H]3O[C@H]1C[C@H](N)[C@H](O)[C@H](C)O1 [Adriamycin] : % Control value of the absorbance at 450 nm (WST-8 measurement) value = 3

* * *

Test system: human cervical cancer cell line HeLa
Experiment Summary: Comparison with single layer culture method using agent for inducing apoptosis
Format: cell-based
Setup Conditions: agent 1 µM; deacylated gellan gum addition group (0.015%); day 4
Starred links: 1 amine or outer side, 2 acyl side, 3 side chain; linkers in the order of their positions; H or OH if unused. Positions of bridges follow the written chain, without caps; N, C: chain ends. Non-standard residues stand in square brackets, D forms with d. Residues, ends and D or L forms follow the SMILES beside them. Chains are numbered I, II in the order given. Actinocin(9to1) = Cc1c2oc3c(C)ccc(C(=O)[*:1])c3nc-2c(C(=O)[*:2])c(N)c1=O; NMeV = CN[C@H](C(=O)O)C(C)C; Sar = CNCC(=O)O
Measured Quantity: % Control value of the absorbance at 450 nm (WST-8 measurement) (% Control)
Express it in % Control; write the number only.

Example cases with answers are listed next.
COc1cccc2c1C(=O)c1c(O)c3c(c(O)c1C2=O)C[C@@](O)(C(=O)CO)C[C@@H]3O[C@H]1C[C@H](N)[C@H](O)[C@H](C)O1 [Adriamycin] :: 3
COc1cc([C@@H]2c3cc4c(cc3[C@@H](O[C@@H]3O[C@@H]5CO[C@@H](C)O[C@H]5[C@H](O)[C@H]3O)[C@H]3COC(=O)[C@H]23)OCO4)cc(OC)c1O [Etoposide] :: 39
Cc1c2oc3c(C)ccc(C(=O)N[C@@H]4C(=O)N[C@H](C(C)C)C(=O)N5CCC[C@H]5C(=O)N(C)CC(=O)N(C)[C@@H](C(C)C)C(=O)O[C@@H]4C)c3nc-2c(C(=O)N[C@@H]2C(=O)N[C@H](C(C)C)C(=O)N3CCC[C@H]3C(=O)N(C)CC(=O)N(C)[C@@H](C(C)C)C(=O)O[C@@H]2C)c(N)c1=O [Actinomycin D] (I: T[dV]P[Sar][NMeV] / II: T[dV]P[Sar][NMeV]; ester I:1-I:C, II:1-II:C; linker I:N-II:N via Actinocin(9to1)) :: 3

// C[C@@H]1C[C@H]2[C@@H]3CCC4=CC(=O)C=C[C@]4(C)[C@@]3(F)[C@@H](O)C[C@]2(C)[C@@]1(O)C(=O)CO [Dexamethasone] : % Control value of the absorbance at 450 nm (WST-8 measurement) value = 184
